- TARGET_SYSTEM: Serine/threonine-protein kinase Chk1 (Homo sapiens, UniProt O14757)
- Sequence (O14757 whole entry): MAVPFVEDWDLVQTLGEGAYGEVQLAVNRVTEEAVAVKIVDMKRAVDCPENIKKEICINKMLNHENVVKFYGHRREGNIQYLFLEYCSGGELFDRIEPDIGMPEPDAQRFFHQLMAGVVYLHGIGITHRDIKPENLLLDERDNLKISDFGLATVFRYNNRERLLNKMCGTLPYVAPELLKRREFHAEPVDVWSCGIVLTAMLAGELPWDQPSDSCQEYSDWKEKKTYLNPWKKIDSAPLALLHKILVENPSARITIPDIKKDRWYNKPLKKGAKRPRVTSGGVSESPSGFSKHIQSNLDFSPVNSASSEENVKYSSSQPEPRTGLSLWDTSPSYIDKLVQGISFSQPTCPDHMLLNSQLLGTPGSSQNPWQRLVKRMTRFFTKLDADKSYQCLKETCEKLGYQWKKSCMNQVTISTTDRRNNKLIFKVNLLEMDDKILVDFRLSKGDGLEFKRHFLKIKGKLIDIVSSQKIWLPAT
- PROTOCOL_DESCRIPTION: Inhibition of human recombinant CHK1 using CHKtide as substrate in presence of ATP by ADP-Glo luminescence kinase assay
Lab note: cut-off is 100 nM. Strictly less in IC50 is Criterion met. Exactly 100 nM or more is Criterion not met.

GIVEN_SMILES	CAT
Cc1nn2c(-c3ccc(Cl)cc3)ccnc2c1/C(N)=N/O	Criterion not met
Cn1cc(-c2cnn3c(N)cc([C@@H]4CCCNC4)nc23)cn1	Criterion met
Cc1nn2c(-c3ccc(Br)cc3)ccnc2c1/C(N)=N/O	Criterion met
COc1ccc(-c2ccnc3c(-c4noc(C)n4)c(C)nn23)cc1	Criterion not met
Cc1nn2c(-c3ccccc3)ccnc2c1/C(N)=N/O	Criterion met
Cc1nc(-c2c(C)nn3c(-c4ccccc4)ccnc23)no1	Criterion not met

###

- TARGET_SYSTEM: Epidermal growth factor receptor (Homo sapiens)
- Sequence (P00533 whole entry): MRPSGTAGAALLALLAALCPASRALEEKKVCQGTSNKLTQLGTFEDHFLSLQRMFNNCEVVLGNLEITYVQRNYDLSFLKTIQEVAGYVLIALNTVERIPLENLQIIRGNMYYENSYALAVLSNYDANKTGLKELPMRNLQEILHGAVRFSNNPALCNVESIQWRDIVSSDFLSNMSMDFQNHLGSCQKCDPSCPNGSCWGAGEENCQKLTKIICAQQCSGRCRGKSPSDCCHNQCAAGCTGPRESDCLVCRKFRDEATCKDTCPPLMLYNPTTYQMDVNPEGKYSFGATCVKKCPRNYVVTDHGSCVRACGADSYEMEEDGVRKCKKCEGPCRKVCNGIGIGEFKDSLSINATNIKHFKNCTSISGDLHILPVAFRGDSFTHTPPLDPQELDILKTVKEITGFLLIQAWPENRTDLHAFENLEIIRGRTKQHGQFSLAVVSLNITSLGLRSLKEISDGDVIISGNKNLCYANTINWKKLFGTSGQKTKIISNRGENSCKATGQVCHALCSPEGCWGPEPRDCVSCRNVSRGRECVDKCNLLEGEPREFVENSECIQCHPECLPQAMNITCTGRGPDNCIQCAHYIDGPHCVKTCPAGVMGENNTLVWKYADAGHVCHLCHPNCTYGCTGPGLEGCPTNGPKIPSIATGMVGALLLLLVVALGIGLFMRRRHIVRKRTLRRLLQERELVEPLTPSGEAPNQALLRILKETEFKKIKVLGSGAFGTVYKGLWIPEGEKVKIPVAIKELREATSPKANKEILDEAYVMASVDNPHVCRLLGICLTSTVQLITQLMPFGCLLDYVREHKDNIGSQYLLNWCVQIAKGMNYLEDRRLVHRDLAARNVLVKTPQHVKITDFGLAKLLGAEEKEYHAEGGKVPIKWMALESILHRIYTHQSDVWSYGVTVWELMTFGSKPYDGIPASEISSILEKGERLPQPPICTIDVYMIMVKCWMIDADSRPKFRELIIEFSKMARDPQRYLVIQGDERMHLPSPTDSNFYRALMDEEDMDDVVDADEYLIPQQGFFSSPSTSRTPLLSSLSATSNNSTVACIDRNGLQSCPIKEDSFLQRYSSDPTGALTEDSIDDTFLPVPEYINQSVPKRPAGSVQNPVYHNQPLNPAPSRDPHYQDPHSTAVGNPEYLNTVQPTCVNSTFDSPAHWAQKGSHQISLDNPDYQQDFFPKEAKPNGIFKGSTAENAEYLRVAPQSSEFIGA
- PROTOCOL_DESCRIPTION: Inhibition of human recombinant GST tagged-EGFR using Poly (Glu,Tyr) 4:1 as substrate in presence of ATP by ADP-Glo luminescence kinase assay
pIC50: −log10 of the molar value.
READOUT: pIC50

GIVEN_SMILES	READOUT	MEAS_VALUE
COc1ccc(-c2ccnc3c(-c4noc(C)n4)c(C)nn23)cc1	pIC50	6.97

###

- TARGET_SYSTEM: Cyclin-dependent kinase 2 (Homo sapiens, UniProt P24941)
pIC50: −log10 of the molar value.
READOUT: pIC50

GIVEN_SMILES	TARGET_SYSTEM	READOUT	MEAS_VALUE
Cc1nn2c(-c3ccccc3)ccnc2c1/C(N)=N/O	Cyclin-dependent kinase 2 (Homo sapiens, UniProt P24941)	pIC50	5.76

###

- TARGET_SYSTEM: Proto-oncogene tyrosine-protein kinase ROS (Homo sapiens)
- PROTOCOL_DESCRIPTION: Inhibition of human recombinant GST tagged-ROS1 using IRF-1Rtide as substrate in presence of ATP by ADP-Glo luminescence kinase assay

GIVEN_SMILES	TARGET_SYSTEM	IC50 (nM)
COc1ccc(-c2ccnc3c(-c4noc(C)n4)c(C)nn23)cc1	Proto-oncogene tyrosine-protein kinase ROS (Homo sapiens)	759

###

- TARGET_SYSTEM: Activin receptor type-1 (Homo sapiens, UniProt Q04771)
- Sequence (Q04771 whole entry, the tested form may be a part): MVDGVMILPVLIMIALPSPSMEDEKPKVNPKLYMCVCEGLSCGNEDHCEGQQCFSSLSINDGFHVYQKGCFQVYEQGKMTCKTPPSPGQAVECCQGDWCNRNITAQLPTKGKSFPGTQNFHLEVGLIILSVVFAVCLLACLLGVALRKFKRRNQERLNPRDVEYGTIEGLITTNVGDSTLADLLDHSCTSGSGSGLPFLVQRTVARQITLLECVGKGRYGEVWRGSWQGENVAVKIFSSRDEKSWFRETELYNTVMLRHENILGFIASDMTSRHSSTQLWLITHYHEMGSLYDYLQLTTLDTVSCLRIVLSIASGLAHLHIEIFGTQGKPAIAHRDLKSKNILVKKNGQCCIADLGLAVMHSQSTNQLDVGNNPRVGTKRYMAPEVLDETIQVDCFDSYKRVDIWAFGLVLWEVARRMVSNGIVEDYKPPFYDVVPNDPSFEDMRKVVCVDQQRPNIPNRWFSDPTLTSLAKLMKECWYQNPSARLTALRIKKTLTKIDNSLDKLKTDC
- PROTOCOL_DESCRIPTION: Inhibition of human recombinant GST-tagged-ALK2 (147 to 509 residues) using Casein as substrate in presence of ATP by ADP-Glo luminescence assay
pIC50: −log10 of the molar value.
// pIC50 lookup, one value per entry

COMPOUND	pIC50
Cc1nn2c(-c3ccc(Cl)cc3)ccnc2c1C#N	6.63
Cc1nn2c(-c3ccc(Cl)cc3)ccnc2c1C(N)=O	6.74
Cc1ccc(-c2ccnc3c(C#N)c(C)nn23)cc1	7.26
Cc1nn2c(-c3ccc(Br)cc3)ccnc2c1C(N)=O	6.45
C[C@H]1Oc2cc(cnc2N)-c2c(nn(C)c2C#N)CN(C)C(=O)c2ccc(F)cc21 [LORLATINIB]	7.54
Cc1nn2c(-c3ccc(Br)cc3)ccnc2c1C#N	6.98
COc1ccc(-c2ccnc3c(-c4noc(C)n4)c(C)nn23)cc1	7.43

###

- TARGET_SYSTEM: Casein kinase II subunit alpha (Homo sapiens, UniProt P68400)
- Sequence (P68400 whole entry): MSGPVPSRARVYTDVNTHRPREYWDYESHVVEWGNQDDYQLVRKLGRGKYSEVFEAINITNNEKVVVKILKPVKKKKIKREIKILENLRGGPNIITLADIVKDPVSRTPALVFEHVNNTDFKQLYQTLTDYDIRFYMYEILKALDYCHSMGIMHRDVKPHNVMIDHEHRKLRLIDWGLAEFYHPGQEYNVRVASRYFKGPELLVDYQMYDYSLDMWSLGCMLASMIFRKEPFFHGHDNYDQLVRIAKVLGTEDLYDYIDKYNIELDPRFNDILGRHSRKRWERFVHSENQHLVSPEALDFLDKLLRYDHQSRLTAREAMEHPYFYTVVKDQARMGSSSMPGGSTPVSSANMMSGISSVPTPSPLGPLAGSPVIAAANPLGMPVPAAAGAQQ
- PROTOCOL_DESCRIPTION: Inhibition of human recombinant full-length C-terminal His tagged-CK2 alpha expressed in Escherichia coli using tetra-methylbenzidine as substrate in presence of ATP by ELISA analysis
READOUT: IC50 (nM)

GIVEN_SMILES	MEAS_VALUE
Cc1nn2c(-c3ccccc3)ccnc2c1/C(N)=N/O	72
Cc1nn2c(-c3ccc(Cl)cc3)ccnc2c1/C(N)=N/O	217
COc1ccc(-c2ccnc3c(-c4noc(C)n4)c(C)nn23)cc1	93
Cc1nn2c(-c3ccc(Br)cc3)ccnc2c1/C(N)=N/O	122
Cc1nc(-c2c(C)nn3c(-c4ccccc4)ccnc23)no1	289

###

- PROTOCOL_DESCRIPTION: Inhibition of human recombinant FLT3 using myelin basic protein as substrate in presence of ATP by ADP-Glo luminescence kinase assay
pIC50: −log10 of the molar value.

MOLECULE	pIC50
CCc1nc(C(N)=O)c(Nc2ccc(N3CCC(N4CCN(C)CC4)CC3)c(OC)c2)nc1NC1CCOCC1 [GILTERITINIB]	7.19

###

- TARGET_SYSTEM: Serine/threonine-protein kinase pim-1 (Homo sapiens, UniProt P11309)
- Sequence (P11309 whole entry): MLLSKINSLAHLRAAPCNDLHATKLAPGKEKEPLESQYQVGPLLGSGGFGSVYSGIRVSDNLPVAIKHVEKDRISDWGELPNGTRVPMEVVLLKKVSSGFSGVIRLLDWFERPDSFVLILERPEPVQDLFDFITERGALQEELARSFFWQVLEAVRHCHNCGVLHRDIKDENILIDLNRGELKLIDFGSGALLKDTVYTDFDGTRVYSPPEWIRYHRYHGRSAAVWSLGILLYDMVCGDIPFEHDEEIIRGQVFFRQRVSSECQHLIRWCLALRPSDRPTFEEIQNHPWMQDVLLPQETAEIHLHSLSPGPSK
- PROTOCOL_DESCRIPTION: Inhibition of human recombinant full-length PIM1 expressed in baculovirus infected Sf9 cells using S6K as substrate in presence of ATP by ADP-Glo luminescence kinase assay

GIVEN_SMILES	IC50
O=c1c(O)c(-c2cc(O)c(O)c(O)c2)oc2cc(O)cc(O)c12	4.06 µM

###

- PROTOCOL_DESCRIPTION: Cytotoxicity against human FHCs assessed as inhibition of cell viability by MTT assay
- Format: toxicity, cell-based
- REPORTED_CONDITIONS: FHC cells
pIC50: −log10 of the molar value.

GIVEN_SMILES	pIC50
COc1cccc2c1C(=O)c1c(O)c3c(c(O)c1C2=O)C[C@@](O)(C(=O)CO)C[C@@H]3O[C@H]1C[C@H](N)[C@H](O)[C@H](C)O1	4.75
